Measured values drawn from patent US8686044B2 for this set.

test system: Plutella xylostella; assay: Pesticidal test against Plutella xylostella (cabbage leaf dip); type: in vivo; details: foliar, 144 h, concentration 10 ppm, 2-stage larvae, examined after 6 days, 25° C., read-out: pesticidal rate
Attribute: pest or weed control at 10 ppm

Some entries whose results are on file:
Enquiry: Identify the measured pest or weed control at 10 ppm of CN(C(=O)c1ccc(C#N)nc1)c1cc(C(=O)Nc2c(Cl)cc(C(F)(C(F)(F)F)C(F)(F)F)cc2C(F)(F)F)ccc1C#N [2-518] for Plutella xylostella.
Return: ≥ 70%

Enquiry: What do you have for CN(C(=O)c1cccnc1Cl)c1nc(C(=O)Nc2c(Br)cc(C(F)(C(F)(F)F)C(F)(F)F)cc2C(F)(F)F)cs1 [27-663] ?
Return: ≥ 70%

Enquiry: And then O=C(Nc1c(I)cc(C(F)(C(F)(F)F)C(F)(F)F)cc1C(F)(F)F)c1cccc(NC(=O)c2ccc([N+](=O)[O-])cc2Cl)c1 [6-454] , what is it?
Return: ≥ 70%

Enquiry: What do we get for O=C(Nc1c(I)cc(C(F)(C(F)(F)F)C(F)(F)F)cc1C(F)(F)F)c1cccc(NC(=O)c2ccc(Cl)cc2Cl)c1 [6-448] ?
Return: ≥ 70%

Enquiry: Okay, and CN(C(=O)c1ccccc1F)c1cccc(C(=O)Nc2c(Br)cc(C(F)(C(F)(F)F)C(F)(F)F)cc2C(F)(F)F)c1 [7-269] ?
Return: ≥ 70%

Now let's try a different one.
Enquiry: Request: pest or weed control at 10 ppm, test system Plutella xylostella, entry COc1cc(C(F)(C(F)(F)F)C(F)(F)F)cc(C)c1NC(=O)c1cccc(N(C)C(=O)c2ccccc2)c1 [compound (A), reference compound]
Return: ≤ 50%

----------
test system: Laodelphax striatellus; assay: Pesticidal test against Laodelphax striatellus (rice seedling spray); assay type: in vivo; conditions: 144 h, concentration 100 ppm, 3-stage larvae, examined after 6 days, 25° C., read-out: pesticidal rate
READOUT_NAME: pest or weed control at 100 ppm

Would you please look over these solved cases?
Enquiry: Which pest or weed control at 100 ppm value belongs to O=C(Nc1cccc(C(=O)Nc2c(Br)cc(C(F)(C(F)(F)F)C(F)(F)F)cc2Br)c1F)c1ccccc1 ?
Return: ≥ 70%

Enquiry: Do the same for O=C(Nc1cccc(C(=O)Nc2c(Br)cc(C(F)(C(F)(F)F)C(F)(F)C(F)(F)F)cc2Br)c1)c1cccc(F)c1 (centres unmarked) please
Return: ≥ 70%

Enquiry: Next compound up: CN(C(=O)c1cccnc1Cl)c1cccc(C(=O)Nc2c(Br)cc(C(F)(C(F)(F)F)C(F)(F)C(F)(F)F)cc2Br)c1 (centres unmarked)
Return: ≥ 70%

Enquiry: Now the compound CN(C(=O)c1ccccc1F)c1cccc(C(=O)Nc2c(I)cc(C(F)(C(F)(F)F)C(F)(F)C(F)(F)F)cc2I)c1F (centres unmarked)
Return: ≥ 70%

Enquiry: Proceed to CN(C(=O)c1cccc(F)c1)c1cccc(C(=O)Nc2c(Br)cc(C(F)(C(F)(F)F)C(F)(F)F)cc2Br)c1F
Return: ≥ 70%

Enquiry: And then CN(C(=O)c1ccncc1)c1cccc(C(=O)Nc2c(Br)cc(C(F)(C(F)(F)F)C(F)(F)F)cc2C(F)(F)F)c1F , what is it?
Return: ≥ 70%

Continuing:
Enquiry: Given the compound CN(C(=O)c1ccc(Cl)nc1)c1cccc(C(=O)Nc2c(I)cc(C(F)(C(F)(F)F)C(F)(F)F)cc2C(F)(F)F)c1 , what is its reported pest or weed control at 100 ppm?
Return: ≥ 70%

Enquiry: Note, next up: CN(C(=O)c1ccc(C#N)cc1)c1cc(C(=O)Nc2c(Br)cc(C(F)(C(F)(F)F)C(F)(F)F)cc2C(F)(F)F)ccc1F
Return: ≥ 70%

Enquiry: Can you handle O=C(Nc1cccc(C(=O)Nc2c(Br)cc(C(F)(C(F)(F)F)C(F)(F)F)cc2C(F)(F)F)c1)c1ccc(F)cc1 next?
Return: ≥ 70%

Enquiry: Repeat with O=C(Nc1c(I)cc(C(F)(C(F)(F)F)C(F)(F)F)cc1C(F)(F)F)c1cccc(NC(=O)c2cccnc2Br)c1
Return: ≥ 70%

Enquiry: Now consider CN(C(=O)c1cccc(C#N)c1)c1cccc(C(=O)Nc2c(Br)cc(C(F)(C(F)(F)F)C(F)(F)C(F)(F)F)cc2Br)c1F (centres unmarked) and answer again.
Return: ≥ 70%

Enquiry: Same thing, different compound: N#Cc1ccc(C(=O)Nc2cccc(C(=O)Nc3c(Br)cc(C(F)(C(F)(F)F)C(F)(F)F)cc3OC(F)(F)F)c2F)cc1
Return: ≥ 70%

Enquiry: And what about the compound CN(C(=O)c1ccc(C#N)cc1)c1cccc(C(=O)Nc2c(I)cc(C(F)(C(F)(F)F)C(F)(F)F)cc2I)c1F ?
Return: ≥ 70%

Enquiry: Likewise for CN(C(=O)c1ccc(F)cc1)c1cccc(C(=O)Nc2c(I)cc(C(F)(C(F)(F)F)C(F)(F)F)cc2C(F)(F)F)c1F ?
Return: ≥ 70%
